# ASSAYED_SYSTEM: DRB5*0101 (DR2w2a) (Homo sapiens, UniProt P01903+Q30154)
# Construct: used as sources of human HLA class II molecules; endogenous in cells; host or cells: GM3107 (EBV-transformed homozygous B cell line)
# ASSAY_PROTOCOL: Class II peptide-binding assay, DR2w2a (DR2w2B2)
# EXPERIMENTAL_SETUP: read-out: DR2w2B2 nM (In IC50 Format); purified HLA DR2w2β2
Ends that are not written are not given here.
MEASURED_ATTRIBUTE: log10 IC50 (log10 of the value in µM)

>>> result_value("YARFQSQTTLKAKT-NH2 [Peptide 717.02]")
-0.90
>>> result_value("YARFQSQTVLKAKT-NH2 [Peptide 717.32]")
-0.40
>>> result_value("KYLATASTMDHARHGFLP [Peptide 765.02]")
1.00
>>> result_value("YARAQSQTTLKAKT-NH2 [Peptide 717.29]")
0.26
>>> result_value("YAAFQSQTTLKAKT-NH2 [Peptide 717.30]")
-0.98
>>> result_value("YERFQSQTTLKAKT-NH2 [Peptide 717.39]")
-0.10
>>> result_value("YARYQSQTTLKAKT-NH2 [Peptide 717.42]")
-0.44
>>> result_value("YARFQSQTTLEAKT-NH2 [Peptide 717.22]")
-0.06
>>> result_value("YARFQSQTTLKAKT [Peptide 717.67]")
-0.78
>>> result_value("INSWVESQTNGIIRNVLQPS [Peptide 732.01]")
0.12
>>> result_value("YARFQSQTTLAAKT-NH2 [Peptide 717.50]")
-0.56
>>> result_value("YARFQSQTYLKAKT-NH2 [Peptide 717.33]")
-0.59
>>> result_value("YAEFQSQTTLKAKT-NH2 [Peptide 717.41]")
-0.18
>>> result_value("YSRFQSQTTLKAKT-NH2 [Peptide 717.38]")
-0.56
>>> result_value("YARFQSQTTLKSKT-NH2 [Peptide 717.23]")
-0.67
>>> result_value("YARFQSQTTLKAKE-NH2 [Peptide 717.28]")
-1.02
>>> result_value("LVEALYLVSGERGFFYTPKT [Peptide 734.03]")
0.26
>>> result_value("YARFQSQETLKAKT-NH2 [Peptide 717.17]")
-0.06
>>> result_value("YARFQSLTTLKAKT-NH2 [Peptide 717.15]")
-1.62
>>> result_value("YARFQSATTLKAKT-NH2 [Peptide 717.54]")
-1.22
>>> result_value("YARFQSQTTLKAAT-NH2 [Peptide 717.49]")
-0.93
>>> result_value("TSATQRLANSLVHSSNNFG [Peptide 735.02]")
1.00
>>> result_value("YARFQSQSTLKAKT-NH2 [Peptide 717.16]")
-0.98
>>> result_value("YARFQSQTTKKAKT-NH2 [Peptide 717.20]")
-1.06
>>> result_value("YAKFQSQTTLKAKT-NH2 [Peptide 717.40]")
-0.78

====

# ASSAYED_SYSTEM: DRB5*0101 (DR2w2a) (Homo sapiens, UniProt P01903+Q30154)
# Construct: used as sources of human HLA class II molecules; endogenous in cells; host or cells: GM3107 (EBV-transformed homozygous B cell line)
# ASSAY_PROTOCOL: Class II peptide-binding assay, DR2w2a (DR2w2B2);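 note: competitive binding assay: unlabeled peptide inhibiting binding of a radiolabeled probe peptide to purified DR molecules at pH 7.0, IC50 approximating Kd, lower means stronger binding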
# EXPERIMENTAL_SETUP: read-out: In IC50 Format DR2w2β2; Table VIII
Ends that are not written are not given here.
Label key: satisfied means IC50 under 600 nM; not satisfied means IC50 of 600 nM or more.

>>> class("ARRLKAIYARRLK [Peptide 640.04]")
"satisfied"
>>> class("KYLEFISEAIIHVLHSR [Peptide 508.01]")
"not satisfied"
>>> class("DVFKELKVHHANENI [Peptide 519.00]")
"satisfied"
>>> class("KIAKMEKASSVFNVVNS [Peptide 526.01]")
"not satisfied"
>>> class("FFKNIVTPRFFKNIVTPR [Peptide 613.03]")
"satisfied"
>>> class("INSWVESQTNGIIR [Peptide 608.02]")
"not satisfied"
>>> class("VHHANENIFYCPIAIMSALA [Peptide 703.03]")
"not satisfied"
